test system: OVCAR-8 complex spheroid, growth inhibition; test: Anticancer human tumor OVCAR-8 cell line growth inhibition [Asc]; settings: second compound 0.0316 µM; first compound 0.0949 µM; stronger effect = lower value;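 further: spheroids exposed to agents for 7 days before readout; percent viability relative to DMSO vehicle wells taken as 100%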
Below, each of the molecules is paired with its reported viability, T/C value.
Please state the figure in %; there is no need to write the unit.

Example molecules with recorded viability, T/C:
[
  {
    "Molecule": "CCN1C(C(=O)NC23CCC(C(=O)O)(CC2)CC3)C(c2cccc(Cl)c2F)C2(C(=O)Nc3cc(Cl)ccc32)C12CCCCC2 (stereo unspecified) + Cc1c(S(C)(=O)=O)c(-c2cc(F)cc(N3CCN(c4ccc(NS(=O)(=O)c5ccc(NC(CCN6CCC(C(=O)OCCCP(=O)(O)O)CC6)CSc6ccccc6)c(S(=O)(=O)C(F)(F)F)c5)cc4)CC3)c2)c(-c2ccc(Cl)cc2)n1C(C)C",
    "Measured property": "viability, T/C",
    "Measurement": 99.5
  },
  {
    "Molecule": "NC(=O)C(=Cn1cnc(-c2cc(C(F)(F)F)cc(C(F)(F)F)c2)n1)c1cncnc1 + Cc1c(S(C)(=O)=O)c(-c2cc(F)cc(N3CCN(c4ccc(NS(=O)(=O)c5ccc(NC(CCN6CCC(C(=O)OCCCP(=O)(O)O)CC6)CSc6ccccc6)c(S(=O)(=O)C(F)(F)F)c5)cc4)CC3)c2)c(-c2ccc(Cl)cc2)n1C(C)C",
    "Measured property": "viability, T/C",
    "Measurement": 89.3
  },
  {
    "Molecule": "CCN1C(C(=O)NC23CCC(C(=O)O)(CC2)CC3)C(c2cccc(Cl)c2F)C2(C(=O)Nc3cc(Cl)ccc32)C12CCCCC2 (stereo unspecified) + CNC(C)C(=O)NC1CN(S(=O)(=O)c2cccc(S(=O)(=O)N3CCC4CCC(C(=O)NC(c5ccccc5)c5ccccc5)N4C(=O)C(NC(=O)C(C)NC)C3)c2)CCC2CCC(C(=O)NC(c3ccccc3)c3ccccc3)N2C1=O",
    "Measured property": "viability, T/C",
    "Measurement": 92.7
  },
  {
    "Molecule": "Cc1nc(N2CCC3(CC2)COC(C)C3N)c(CO)nc1Sc1ccnc(N)c1Cl (stereo unspecified) + Cc1c(S(C)(=O)=O)c(-c2cc(F)cc(N3CCN(c4ccc(NS(=O)(=O)c5ccc(NC(CCN6CCC(C(=O)OCCCP(=O)(O)O)CC6)CSc6ccccc6)c(S(=O)(=O)C(F)(F)F)c5)cc4)CC3)c2)c(-c2ccc(Cl)cc2)n1C(C)C",
    "Measured property": "viability, T/C",
    "Measurement": 159
  },
  {
    "Molecule": "NC(=O)C(=Cn1cnc(-c2cc(C(F)(F)F)cc(C(F)(F)F)c2)n1)c1cncnc1 + CNC(C)C(=O)NC1CN(S(=O)(=O)c2cccc(S(=O)(=O)N3CCC4CCC(C(=O)NC(c5ccccc5)c5ccccc5)N4C(=O)C(NC(=O)C(C)NC)C3)c2)CCC2CCC(C(=O)NC(c3ccccc3)c3ccccc3)N2C1=O",
    "Measured property": "viability, T/C",
    "Measurement": 74.5
  }
]

Now, please, on to the next molecule.
Input line: Quick one: viability, T/C of Cc1nc(N2CCC3(CC2)COC(C)C3N)c(CO)nc1Sc1ccnc(N)c1Cl (stereo unspecified) + CNC(C)C(=O)NC1CN(S(=O)(=O)c2cccc(S(=O)(=O)N3CCC4CCC(C(=O)NC(c5ccccc5)c5ccccc5)N4C(=O)C(NC(=O)C(C)NC)C3)c2)CCC2CCC(C(=O)NC(c3ccccc3)c3ccccc3)N2C1=O ?
Output line: 166
